# TESTED_ON: flavin binding site of complex I (IF) (Rattus norvegicus, UniProt Q5XIH3)
# Construct: freshly isolated muscle mitochondria were assayed; from tissue; host or cells: rat skeletal muscle mitochondria (Wistar, Harlan Laboratories)
# Sequence (Q5XIH3 21-464 limits assumed, one chain of several): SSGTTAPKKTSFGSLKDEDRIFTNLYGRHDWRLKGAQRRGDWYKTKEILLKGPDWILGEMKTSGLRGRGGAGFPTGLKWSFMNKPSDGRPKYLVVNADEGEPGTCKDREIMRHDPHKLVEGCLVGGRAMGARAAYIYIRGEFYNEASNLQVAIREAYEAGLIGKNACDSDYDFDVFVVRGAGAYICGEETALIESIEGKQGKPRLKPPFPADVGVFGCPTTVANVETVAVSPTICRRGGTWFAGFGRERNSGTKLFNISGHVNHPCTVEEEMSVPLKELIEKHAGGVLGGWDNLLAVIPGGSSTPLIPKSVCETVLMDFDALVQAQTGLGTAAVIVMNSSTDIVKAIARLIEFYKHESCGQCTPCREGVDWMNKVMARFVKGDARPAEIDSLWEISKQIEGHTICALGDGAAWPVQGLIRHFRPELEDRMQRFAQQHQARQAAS
# METHOD_DESCRIPTION: High-throughput screen: ROS production from flavin binding site of complex I (IF)
# Type: biochemical
# MEASUREMENT_SETUP: Table 3; 5 mM glutamate, 5 mM malate, 4 μM rotenone; compounds 2.5 μM; percent change from DMSO, positive control −100%; read-out: % Reduction in ROS production (IF)
OBSERVABLE: inhibition at 2.5 µM (%)

In [3]: df
Out[3]:
                                   compound                                 tested_on  readout_value
0  O=C(O)C1CCCCC1C(=O)NC1CCCCC1 (stereo not shown) [Compound 19]  flavin binding site of complex I (IF) (Rattus norvegicus, UniProt Q5XIH3)           25.6
1  COc1cc(CN(CCN(C)C)Cc2ccccc2)cc(OC)c1 [Compound 31]  flavin binding site of complex I (IF) (Rattus norvegicus, UniProt Q5XIH3)            7.6
2  CN(C)CCN(Cc1ccccc1)Cc1ccccc1Br [Compound 23]  flavin binding site of complex I (IF) (Rattus norvegicus, UniProt Q5XIH3)           21.1
3  O=C(Nc1ccccc1F)[C@@H]1C2C=CC(C2)[C@@H]1C(=O)O (stereo partly shown) [Compound 20]  flavin binding site of complex I (IF) (Rattus norvegicus, UniProt Q5XIH3)             24
4  CCCN(CCO)Cc1ccc2c(c1)c1ccccc1n2CC [Compound 15]  flavin binding site of complex I (IF) (Rattus norvegicus, UniProt Q5XIH3)           27.6
5  COc1cccc(/C=C/C(=O)c2c(O)cc(C)oc2=O)c1O [Compound 17]  flavin binding site of complex I (IF) (Rattus norvegicus, UniProt Q5XIH3)             26
6  Clc1ccc(C(NC2CCN(Cc3ccccc3)CC2)c2ccccc2)cc1 (stereo not shown) [Compound 78]  flavin binding site of complex I (IF) (Rattus norvegicus, UniProt Q5XIH3)             37
7  Cc1ccc(C)c(CN(CCCN(C)C)CCCN(C)C)c1 [Compound 32]  flavin binding site of complex I (IF) (Rattus norvegicus, UniProt Q5XIH3)           28.8
8  O=C(COc1ccc(Cl)cc1Cl)Nc1ccc(F)cc1F [Compound 24]  flavin binding site of complex I (IF) (Rattus norvegicus, UniProt Q5XIH3)           19.8
9  CCN(CC)CCN(CC)Cc1ccc(Cl)cc1Cl [Compound 25]  flavin binding site of complex I (IF) (Rattus norvegicus, UniProt Q5XIH3)           19.7

---

# TESTED_ON: glycerol-3-phosphate dehydrogenase (GPDH) (Rattus norvegicus, UniProt P35571)
# Construct: The activity of GPDH in intact mitochondria (0.3 mg/mL) was measured; from tissue; host or cells: rat skeletal muscle mitochondria (Wistar, Harlan Laboratories)
# Sequence (P35571 43-727): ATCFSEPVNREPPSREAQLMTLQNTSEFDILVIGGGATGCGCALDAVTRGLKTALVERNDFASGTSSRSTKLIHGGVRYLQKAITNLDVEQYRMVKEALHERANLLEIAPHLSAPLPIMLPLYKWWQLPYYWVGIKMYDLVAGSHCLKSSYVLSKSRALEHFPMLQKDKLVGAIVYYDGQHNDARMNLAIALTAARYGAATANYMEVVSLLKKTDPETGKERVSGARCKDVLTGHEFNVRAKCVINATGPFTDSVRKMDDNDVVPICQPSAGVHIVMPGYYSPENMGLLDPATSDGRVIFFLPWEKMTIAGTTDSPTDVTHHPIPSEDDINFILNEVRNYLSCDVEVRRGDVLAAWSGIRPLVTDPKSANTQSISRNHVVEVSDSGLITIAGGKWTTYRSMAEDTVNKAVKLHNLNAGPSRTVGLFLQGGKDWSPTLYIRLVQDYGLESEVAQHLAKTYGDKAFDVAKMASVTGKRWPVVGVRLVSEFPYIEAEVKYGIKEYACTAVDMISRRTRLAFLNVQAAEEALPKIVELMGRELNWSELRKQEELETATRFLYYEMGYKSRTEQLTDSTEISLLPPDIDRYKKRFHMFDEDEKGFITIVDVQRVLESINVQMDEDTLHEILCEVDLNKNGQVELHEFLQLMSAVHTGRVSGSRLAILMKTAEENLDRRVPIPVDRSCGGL
# METHOD_DESCRIPTION: High-throughput screen: ROS production from glycerol-3-phosphate dehydrogenase (GPDH)
# Type: biochemical
# MEASUREMENT_SETUP: Table 9; percent change in ROS from DMSO controls
OBSERVABLE: GPDH

                                   molecule  readout_value
0  Cc1ccc(NS(=O)(=O)c2ccc(C3CCCCC3)cc2)cc1 [Compound 6]           −2.3
1  COc1ccc(C2C(C#N)=C(N)Oc3c2c(=O)oc2ccccc32)cc1O (stereo not shown) [Compound 74]           −3.5
2  C=C(C)CN(CC)Cc1cc([N+](=O)[O-])ccc1Cl [Compound 45]            3.1
3  CN(C)CCN(Cc1ccccc1)Cc1ccccc1Br [Compound 23]           −1.0
4  O=C(Nc1ccccc1C(=O)O)c1ccccc1 [Compound 18]           −0.6
5  O=C(Nc1ccccc1[N+](=O)[O-])c1cccc(S(=O)(=O)Nc2ccccc2)c1 [Compound 73]           −2.4
6  CCCN(CCO)Cc1ccc2c(c1)c1ccccc1n2CC [Compound 15]           −2.5
7  CC(=O)Nc1ccc(S(=O)(=O)Nc2cccc(C)c2)cc1 [Compound 10]           −4.3
8  COc1ccc(-c2ccccc2)cc1NCC1=CC[C@H]2C[C@@H]1C2(C)C [Compound 41]            2.6
9  COC(=O)c1ccc(CN(CCc2ccccc2)Cc2ccccc2)cc1 [Compound 43]            3.4

---

# Tested on: mitochondrial membrane potential (ΔΨm)
# METHOD_DESCRIPTION: Membrane potential (ΔΨm) counterscreen with TMRM
# MEASUREMENT_SETUP: Table 8, glutamate, malate, nigericin
OBSERVABLE: ΔΨm

>>> print(df.to_string())
                                    compound                               tested_on  readout_value
 0  O=S(=O)(Nc1ccc(Br)cc1)c1ccc(C2CCCCC2)cc1  mitochondrial membrane potential (ΔΨm)           −0.3
 1   COc1cccc(/C=C/C(=O)c2c(O)cc(C)oc2=O)c1O  mitochondrial membrane potential (ΔΨm)            0.3
 2  O=C(Nc1ccccc1[N+](=O)[O-])c1cccc(S(=O)(=O)Nc2ccccc2)c1  mitochondrial membrane potential (ΔΨm)           −0.2
 3  O=[N+]([O-])c1ccc(Oc2ccc(S(=O)(=O)Nc3ccc4c(c3)OCCO4)cc2)cc1  mitochondrial membrane potential (ΔΨm)           −0.9
 4  CC(C)Cc1ccc(C(C)C(=O)Nc2ccccc2O)cc1 (stereo not drawn)  mitochondrial membrane potential (ΔΨm)           −3.5
 5  O=C(Nc1ccc(Br)cc1)[C@@H]1C2C=CC(C2)[C@@H]1C(=O)O (stereo partly drawn)  mitochondrial membrane potential (ΔΨm)           −1.3
 6             CCN(CC)CCN(CC)Cc1ccc(Cl)cc1Cl  mitochondrial membrane potential (ΔΨm)           −0.4
 7        Cc1ccc(C)c(CN(CCCN(C)C)CCCN(C)C)c1  mitochondrial membrane potential (ΔΨm)           −0.2
 8  Clc1ccc(C(NC2CCN(Cc3ccccc3)CC2)c2ccccc2)cc1 (stereo not drawn)  mitochondrial membrane potential (ΔΨm)             −1
 9  CCN1CCN(C2CCC(C(C)(C)C)CC2)CC1 (stereo not drawn)  mitochondrial membrane potential (ΔΨm)           −0.9
10  CCC1CCCCN1C/C=C/c1ccc(N(C)C)cc1 (stereo not drawn)  mitochondrial membrane potential (ΔΨm)              0
11  COC(=O)c1ccc(CN(CCc2ccccc2)Cc2ccccc2)cc1  mitochondrial membrane potential (ΔΨm)            0.6
12  Cl.OC12CCCCC1C(c1cccc(Cl)c1)NCC2 (stereo not drawn)  mitochondrial membrane potential (ΔΨm)            0.9
13              C=CCSc1nc(N)c(C#N)c(CC)c1C#N  mitochondrial membrane potential (ΔΨm)           −0.5
14  Clc1ccc(N2CCN(CC(c3ccccc3)c3ccccc3)CC2)cc1  mitochondrial membrane potential (ΔΨm)              1
15            CN(C)CCN(Cc1ccccc1)Cc1ccccc1Br  mitochondrial membrane potential (ΔΨm)           −1.5
16  CCCCN(Cc1ccccc1)Cc1cc(OC)c(OC)cc1[N+](=O)[O-]  mitochondrial membrane potential (ΔΨm)              1
17  O=C(Nc1ccccc1F)[C@@H]1C2C=CC(C2)[C@@H]1C(=O)O (stereo partly drawn)  mitochondrial membrane potential (ΔΨm)           −0.3
18                 Cc1ccc(CCSc2ccc(F)cc2)cn1  mitochondrial membrane potential (ΔΨm)            0.6
19  Cc1cc(C)c(OCC(O)CNC(C)(C)CC(C)(C)C)c(C)c1.Cl (stereo not drawn)  mitochondrial membrane potential (ΔΨm)           −0.7
20  O=C(O)/C=C/C(=O)Nc1ccc(/C=C/c2ccccc2)cc1  mitochondrial membrane potential (ΔΨm)           −0.3
21  O=[N+]([O-])c1ccc(Oc2ccc(S(=O)(=O)Nc3ccc(F)cc3)cc2)cc1  mitochondrial membrane potential (ΔΨm)           −1.5
22   Cc1ccc(NS(=O)(=O)c2ccc(C3CCCCC3)cc2)cc1  mitochondrial membrane potential (ΔΨm)            0.0
23  CC(C)(C)NS(=O)(=O)c1ccc2c(c1)C(=O)c1ccccc1C2=O  mitochondrial membrane potential (ΔΨm)           −1.5
24        O=C(COc1ccc(Cl)cc1Cl)Nc1ccc(F)cc1F  mitochondrial membrane potential (ΔΨm)            0.1
25              O=C(Nc1ccccc1C(=O)O)c1ccccc1  mitochondrial membrane potential (ΔΨm)           −0.7
26  CC(C)(C)C1=NN(c2c(Cl)cc(Cl)cc2Cl)C(=O)C1  mitochondrial membrane potential (ΔΨm)            1.2
27        c1cc2c3c(ccc(CSCCc4ccncc4)c3c1)CC2  mitochondrial membrane potential (ΔΨm)            0.0
28  Cc1ccccc1NS(=O)(=O)c1ccc(-c2ccc(S(=O)(=O)Nc3ccccc3C)cc2)cc1  mitochondrial membrane potential (ΔΨm)           −0.5
29  COc1ccc(C2C(C#N)=C(N)Oc3c2c(=O)oc2ccccc32)cc1O (stereo not drawn)  mitochondrial membrane potential (ΔΨm)            0.8
30  O=C(O)C1CCCCC1C(=O)NC1CCCCCCC1 (stereo not drawn)  mitochondrial membrane potential (ΔΨm)           −1.0
31      COc1cc(CN(CCN(C)C)Cc2ccccc2)cc(OC)c1  mitochondrial membrane potential (ΔΨm)            0.3
32                  O=C(Nc1nn[nH]n1)C1CCCCC1  mitochondrial membrane potential (ΔΨm)              0
33  CC1=CC(C)(C)N(Cc2ccc([N+](=O)[O-])cc2)c2ccccc21  mitochondrial membrane potential (ΔΨm)            1.5
34         CCCN(CCO)Cc1ccc2c(c1)c1ccccc1n2CC  mitochondrial membrane potential (ΔΨm)           −0.9
35           Cc1ccc(S(=O)(=O)Nc2nnc(C)s2)cc1  mitochondrial membrane potential (ΔΨm)            1.6
36         CCN1CCN(C/C=C/c2ccc(N(C)C)cc2)CC1  mitochondrial membrane potential (ΔΨm)            0.0
37       Cc1cc(C)c(S(=O)(=O)N2CCCC2=O)c(C)c1  mitochondrial membrane potential (ΔΨm)            0.7
38  Cc1ccc(C(C)C)c(OCC(O)CN2CCN(Cc3ccccc3)CC2)c1.Cl.Cl (stereo not drawn)  mitochondrial membrane potential (ΔΨm)           −0.3

Hey, just so you know, these numbers are from patent US20140128352A1.
